Target: UniProtKB Q96RI1
Sequence (Q96RI1 262-486 limits assumed): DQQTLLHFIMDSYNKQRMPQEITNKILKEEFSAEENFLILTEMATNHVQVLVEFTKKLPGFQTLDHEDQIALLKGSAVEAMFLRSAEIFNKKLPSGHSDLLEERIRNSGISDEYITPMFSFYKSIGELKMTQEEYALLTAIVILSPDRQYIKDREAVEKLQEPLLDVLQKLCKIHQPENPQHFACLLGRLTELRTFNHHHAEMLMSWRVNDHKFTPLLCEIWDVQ
Experiment: transient human FXR/Gal4-luciferase reporter assay (HLE GAL-FXR)
Conditions: FXR EC50 (nM), Gal4-hFXR fusion reporter, HEK293 cells; Table 1
readout.kind: EC50 (nM)

a = COc1cc(C(=O)O)nc2c(F)cc(N3CC4C(/C=C/c5c(-c6c(Cl)cncc6Cl)noc5C5CC5)C4C3)cc12 (stereo not shown)
b = O=C(O)c1cc2ccc(N3CCC(/C=C/c4c(-c5c(Cl)cncc5Cl)noc4C4CC4)CC3)cc2cn1
Data request: Which value of EC50 is smaller, the one for a or the one for b ? The response must carry the label of the picked entry.
Data returned: b

a = O=C(O)c1cc(O[C@@H]2CCOC2)c2cc(N3CC4C(/C=C/c5c(-c6cccnc6C(F)(F)F)noc5C5CC5)C4C3)ccc2n1 (stereo partly shown)
b = O=C(O)c1cnc2cc(N3CC(/C=C/c4c(-c5c(Cl)cncc5Cl)noc4C4CC4)C3)ccc2n1
c = COc1cc(C(=O)O)nc2ccc(N3CC(/C=C/c4c(-c5c(Cl)cncc5Cl)noc4C4CC4)C3)cc12
d = O=C(O)Cc1ccnc(N2CCC(/C=C/c3c(-c4c(Cl)cccc4Cl)noc3C3CC3)CC2)c1
e = O=C(O)c1cnc(N2CCC(/C=C/c3c(-c4c(Cl)cccc4Cl)noc3C3CC3)CC2)nc1
Data request: Reorder the items by EC50, least to greatest. The response must list the labels following the requested ordering.
Data returned: c, e, a, b, d
(c: 29 nM, e: 83 nM, a: 165 nM, b: 308 nM, d: 947 nM)

The reported measurements were obtained from patent US11168079B2.
